pKd by entry:
Target: T1, human MerTK (human, UniProt Q12866 26-499)
T1 construct: also called HuMER
T1 sequence: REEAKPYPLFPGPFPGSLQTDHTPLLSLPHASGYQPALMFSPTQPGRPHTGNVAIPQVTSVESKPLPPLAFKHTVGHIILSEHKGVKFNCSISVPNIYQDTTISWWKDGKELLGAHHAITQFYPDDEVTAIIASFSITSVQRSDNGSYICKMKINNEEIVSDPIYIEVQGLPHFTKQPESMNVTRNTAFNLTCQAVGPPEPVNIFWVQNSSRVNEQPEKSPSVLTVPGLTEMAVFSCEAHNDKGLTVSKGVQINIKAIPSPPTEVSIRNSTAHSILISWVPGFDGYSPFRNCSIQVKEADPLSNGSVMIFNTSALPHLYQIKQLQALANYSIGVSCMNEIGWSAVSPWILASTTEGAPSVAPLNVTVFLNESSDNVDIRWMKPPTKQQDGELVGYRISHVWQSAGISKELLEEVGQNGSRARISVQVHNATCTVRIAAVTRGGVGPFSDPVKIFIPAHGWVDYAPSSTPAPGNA
Assay: SPR BIAcore T200, Ab captured, 37C
pKd: −log10 of the molar value.

| binder | pKd |
| --- | --- |
| h10F7.V1 HC S73N (antibody, human IgG1, name in Kabat numbering, V domains shown, Framework variant of h10F7.v1 (human IgG1)) VH: EQQLVESGGGLVQPGGSLRLSCAVSGFSLSGYAMSWVRQAPGKGLEYIGVISSSGSSYYPSWAKGRFTISKDNSKNTVYLQMGSLRAEDMAVYFCARVQFYVGYAVYGYGIIDRLDLWGQGTLVTVSS VL: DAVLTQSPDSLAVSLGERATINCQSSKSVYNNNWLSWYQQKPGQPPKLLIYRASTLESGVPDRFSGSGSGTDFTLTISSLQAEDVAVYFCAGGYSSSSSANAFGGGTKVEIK | 8.12 |
| h10F7.V1 LC A2I (antibody, human IgG1, name in Kabat numbering, V domains shown, Framework variant of h10F7.v1 (human IgG1)) VH: EQQLVESGGGLVQPGGSLRLSCAVSGFSLSGYAMSWVRQAPGKGLEYIGVISSSGSSYYPSWAKGRFTISKDSSKNTVYLQMGSLRAEDMAVYFCARVQFYVGYAVYGYGIIDRLDLWGQGTLVTVSS VL: DIVLTQSPDSLAVSLGERATINCQSSKSVYNNNWLSWYQQKPGQPPKLLIYRASTLESGVPDRFSGSGSGTDFTLTISSLQAEDVAVYFCAGGYSSSSSANAFGGGTKVEIK | 8.23 |
| h10F7.V1 HC K71R (antibody, human IgG1, name in Kabat numbering, V domains shown, Framework variant of h10F7.v1 (human IgG1)) VH: EQQLVESGGGLVQPGGSLRLSCAVSGFSLSGYAMSWVRQAPGKGLEYIGVISSSGSSYYPSWAKGRFTISRDSSKNTVYLQMGSLRAEDMAVYFCARVQFYVGYAVYGYGIIDRLDLWGQGTLVTVSS VL: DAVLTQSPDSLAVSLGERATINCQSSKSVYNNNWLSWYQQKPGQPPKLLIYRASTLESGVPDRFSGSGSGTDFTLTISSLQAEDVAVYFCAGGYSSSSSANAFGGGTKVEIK | 7.82 |
| h10F7.V1 LC L4M (antibody, human IgG1, name in Kabat numbering, V domains shown, Framework variant of h10F7.v1 (human IgG1)) VH: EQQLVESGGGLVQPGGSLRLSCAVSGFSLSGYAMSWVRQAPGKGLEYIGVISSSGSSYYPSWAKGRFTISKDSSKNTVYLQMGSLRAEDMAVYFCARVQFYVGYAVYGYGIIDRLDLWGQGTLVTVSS VL: DAVMTQSPDSLAVSLGERATINCQSSKSVYNNNWLSWYQQKPGQPPKLLIYRASTLESGVPDRFSGSGSGTDFTLTISSLQAEDVAVYFCAGGYSSSSSANAFGGGTKVEIK | 8.21 |
| h10C3.V1 HC Q2V (antibody, human IgG1, name in Kabat numbering, V domains shown, Framework variant of h10C3.v1 (human IgG1)) VH: EVQLVESGGGLVQPGGSLRLSCAASGFSLSGYTMGWVRQAPGKGLEYIGVISSGGTTYYTNWAKGRFTISKDSSKNTVYLQMGSLRAEDMAVYFCARVAFTAYGGGGFPTLHRLDLWGQGTLVTVSS VL: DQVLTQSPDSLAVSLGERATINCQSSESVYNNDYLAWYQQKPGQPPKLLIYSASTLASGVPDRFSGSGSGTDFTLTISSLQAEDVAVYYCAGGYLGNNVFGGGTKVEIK | 7.90 |
